Assay: Antioxidant activity in phosphate buffer assessed as trolox equivalents ratio at pH 7.4 after 15 mins by ORAC-fluorescein assay
Format: physicochemical
Details: pH 7.4, 0.25 h
readout: Ratio
Field format: numeric only.

Consider CCC(C)C(=O)c1c(O)cc(O)c2c1OC(C)(CCC=C(C)C)CC2 (stereo unspecified) . Its measured Ratio is 0.3

Further cases:
Consider CCC(C)C(=O)c1c(O)cc2c(c1O)CCC(C)(C)O2 (stereo unspecified) . Its measured Ratio is 1.2

Consider COc1ccc(C(=O)c2c(O)cc3c(c2O)CCC(C)(C)O3)cc1OC . Its measured Ratio is 1.3

Consider COc1cc(C(=O)c2c(O)cc3c(c2O)CCC(C)(C)O3)cc(O)c1O . Its measured Ratio is 2.1

Consider CC1(C)CCc2c(cc(O)c(C(=O)c3cc(O)cc(O)c3)c2O)O1 . Its measured Ratio is 3

Consider CCC(C)C(=O)c1c(O)cc(O)c(C/C=C(\C)CCC=C(C)C)c1O (stereo unspecified) . Its measured Ratio is 0.4

====

Test: Antioxidant activity in phosphate buffer assessed as trolox equivalents ratio at pH 7.4 after 15 mins by ORAC-fluorescein assay
Format: physicochemical
Conditions: pH 7.4, 0.25 h
A collection of molecules and their measured Ratio
Field format: numeric only.

Consider CC(C)=CCC/C(C)=C/Cc1c(O)cc(O)c(C(=O)C(C)C)c1O . Its measured Ratio is 0.8

Consider CC(=O)c1c(O)cc(O)c(C/C=C(\C)CCC=C(C)C)c1O . Its measured Ratio is 1

Consider COc1cc(C(=O)c2c(O)cc3c(c2O)CCC(C)(C)O3)cc(OC)c1O . Its measured Ratio is 3

Consider CCCC(C)C(=O)c1c(O)cc(O)c(C/C=C(\C)CCC=C(C)C)c1O (stereo not given) . Its measured Ratio is 0.3

Consider CC1(C)CCc2c(cc(O)c(C(=O)c3ccc(O)cc3)c2O)O1 . Its measured Ratio is 6.6

Consider COc1cc(O)c(CC=C(C)C)c(O)c1C(=O)/C=C/c1ccc(O)cc1 [XANTHOHUMOL] . Its measured Ratio is 2.3

Further cases:
Consider CC1(C)CCc2c(cc(O)c(C(=O)c3ccc(O)c(O)c3)c2O)O1 . Its measured Ratio is 2.8

Consider CCC(=O)c1c(O)cc(O)c(C/C=C(\C)CCC=C(C)C)c1O . Its measured Ratio is 0.6

Consider COc1ccc(C(=O)c2c(O)cc3c(c2O)CCC(C)(C)O3)cc1 . Its measured Ratio is 1.1

Consider CC(=O)c1c(O)cc(O)c2c1OC(C)(CCC=C(C)C)CC2 (stereo not given) . Its measured Ratio is 0.8
